Source listed as the supplement of paper PMC10567573.

B1: ZBED3 (parent)
chain: GPGFHAGTSALWRHLRSAHRRELE

Variants of: B1
EXPERIMENT_NOTES: protein stability index of a GFP-peptide fusion (GPS, HEK-293T) (PSI 1-6); higher = more stable;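 also: lentivirally expressed fusions sorted by FACS into six bins by GFP to DsRed ratio, PSI derived from sequencing read proportions per bin multiplied by bin number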
TEST_SETTINGS: c terminus: a fixed tail appended
Would you mind labelling by protein stability index? At or over 2 is Satisfied, under is Not satisfied.

variant_identifier=P2W category_label=Satisfied
variant_identifier=R20A category_label="Not satisfied"
variant_identifier=W12C category_label="Not satisfied"

Switching to the query record.
Q. Reported protein stability index reaches at least 2 for `E24I` ?
A. Satisfied
